assay: yeast display, Sf9 membrane polyspecificity reagent, FACS + sequencing; frameworks hold sequencing errors

sequence: QVQLVESGGGLVQAGGSLRLSCAAYGSTFYNNVMGWYRPAPGKERELVAAINSGGRTYYADSVKGRFTISRDNAKNTVYLQMNSLKPEDTAVYYCAVGYGRAGRMDYWGQGTQVTVSS
polyreactivity (PSR sort gate): high polyreactivity
--
sequence: QVQLVESGGGLVQAGGSLRLSCAASGNILWFNAMGWYRQAPGKERELVASISSSGGRTYYADSVKGRFTISRDNAKNTVYLQMNSLKPEDTAVYYCAAEYYYGWTYSGGLGFLGYNYWGQGTQVTVSS
polyreactivity (PSR sort gate): low polyreactivity
--
sequence: QVQLVESGGGLVQAGGSLRLSCAASGSIISINAMGWYRQAPGKERELVAAITWSGGSTYYADSVKGRVTISRDNAKNTVYLQMNSLKPEDTAVYYCAAAFWFQRGTGYYTSKFDYWGQGTQVTVSS
polyreactivity (PSR sort gate): low polyreactivity
--
sequence: QVQLVESGGGLVQAGGSLRLSCAASVSTFVVNAMGWYRQAPGKERELVAAISRSDAITYYADSVKGRFTISRDNAKNTVYLQMNSLKPEDTAVYYCAAELSYRGYPYDYWGQGTQVTVSS
polyreactivity (PSR sort gate): high polyreactivity
--
sequence: QVQLVESGGGLVQEGGSLRLSCAASGSIFPYYAMGWYRQAPGKERELVAAISSAGSTNYADSVKGRFTISRDNAKNTVYLQMNSLKPEDTAVYYCAADLFYREFDYWGQGTQVTVSS
polyreactivity (PSR sort gate): low polyreactivity
--
sequence: QVQLVESGGGLVQAGGSLRLSCAASGRIFNTYAMGWYRQAPGKERELVAVISSRGGSTYYADSVKGRFTISRDNAKNTVYLQMNSLKPEDTAVYYCAARGRGQPFVRYDYWGQGTQVTVSS
polyreactivity (PSR sort gate): high polyreactivity
--
sequence: QVQLEESGGGLVQAGGSLRLSCAASGSTFTFNAMGWYRQAPGKERELVAVISSGGSTYYAESVKGRFTISRDNAKNTFYLQMNSLKPEDTAVYYCNKVYGYFGQYYLRYNYWGQGTQVTVSS
polyreactivity (PSR sort gate): low polyreactivity
--
sequence: QVQLVESGVGLVQAGGSVRLSCAASGRTFTRYAMGWYRQAPGKEREWVAAITWSGGSTYYADSVKGRFTISRDNAKNTVYLQMNSLKPEDTAVYYCNAQRYGLFGSEHGYWGQGTQVTVSS
polyreactivity (PSR sort gate): high polyreactivity
--
sequence: QVHLVESGGGLVQAGGSLRLSSAASGSIFYLNAMGWYRQAPGKERELVATISNGGSTNYADSVQGRFTISRDNAKNTVYLQMNSLKPEDTAVYYCDAASGGTVVGEGDYWGQGTQVTVSS
polyreactivity (PSR sort gate): low polyreactivity
--
sequence: QVQLVESGGRLVQAGGSLRLSCAASGSTFTYNAMGWYRQAPGKESELVASISSGTTTYYADSVKGRFTISRDNAKNTVYVQMNSLKPEDTAVYYCAFDSWSRVQGWLAHNYDYWGQGTQVTVSS
polyreactivity (PSR sort gate): low polyreactivity
--
sequence: QVQLVESGGGLVQAGGSLRLSCAASGFIFDPYAMGWYRPAPGKERELVAVITYSAGSTYADSVNGRFTISRDNAKNTVYLQMNSLKPEDTAVYYCAKRWWYNVPLGVLYDYWGQGTQVTVSS
polyreactivity (PSR sort gate): low polyreactivity
--
sequence: QVQLVESGGGLVQAGGSLRLSCAASGIFGGYAMGWYIQAPRKERELVAAITSGGSTYYADSVKGRFTISRDNAKNTVYLQMNSLKPEDTAVYYCAARPRGTYSRLGYWGQGTQVTVSS
polyreactivity (PSR sort gate): high polyreactivity
--
sequence: QVQLVESGGGLVQAGGSLRLSCAASGRMFYYYVMGWYRQAPGKESELVAVIDWSGGSTYYADSLKGRFTISRDTAKNTVYLQMNSLKPEDTAVYYCARVPYGNPNGNTPYGDNRYNSWGQGTQVTVSS
polyreactivity (PSR sort gate): low polyreactivity
--
sequence: QVQLVESGGGLVQAGGSLRLSCAASGSTFRYYGMGWYRQAPGKERELVAAITWSSGSTFYADSVKGRFTISRDNAKNTVYLQMNSLKPEDTAVYYCAKTWWTRLKTKSLHFGYWGQGTQVTVSS
polyreactivity (PSR sort gate): high polyreactivity
